Form field: growth inhibition (one value per entry).
Experiment: NCI Yeast Anticancer Drug Screen. Data for the mec2-1 strain (AID 157)
Conditions: S. cerevisiae mec2-1 strain, at 50.0 µM, stronger effect = higher value
This is part of a sample that, as a whole, favours compounds with a hit. Of some 79,000 tested, about 15% had one in any assay.

- Compound: "C#CC(CC)(CC)NC(=O)NC(C)(C)C"
  growth inhibition, %: 0.85
- Compound: "Cc1cc(Cl)ccc1N1C(=O)C(=O)C(c2nc3ccccc3o2)C(=O)C1=O"
  growth inhibition, %: 64.7
- Compound: "CN1C(Cl)=NS(=O)(=O)c2ccccc21"
  growth inhibition, %: -5.6
- Compound: "CCOC(=O)c1c(C)c2c(n1C)CCc1sc(N)nc1-2"
  growth inhibition, %: 96.8
- Compound: "C[C@H]1CC[C@@H]2[C@@H](C)[C@H]3[C@H](C[C@H]4[C@@H]5CC=C6C[C@@H](O)CC[C@]6(C)[C@H]5CC[C@]34C)N2C1"
  growth inhibition, %: 93.5
- Compound: "OC(OC/C(I)=C(/I)COC(O)C(Cl)(Cl)Cl)C(Cl)(Cl)Cl (configuration not stated)"
  growth inhibition, %: 96.9
- Compound: "CCC(COS(=O)(=O)c1ccc(C)cc1)(COS(=O)(=O)c1ccc(C)cc1)COS(=O)(=O)c1ccc(C)cc1"
  growth inhibition, %: 4.35
- Compound: "CCOC(=O)c1c(O)c(C)c(=O)n2c1[nH]c1cc(C)c(C)cc12"
  growth inhibition, %: -6.85
- Compound: "CCOC(=O)/C(=C\\n1c(=O)sc2ccccc21)C(=O)c1ccccc1"
  growth inhibition, %: 50.5
- Compound: "O=c1oc(-c2cc([N+](=O)[O-])cc([N+](=O)[O-])c2Cl)nc2ccccc12"
  growth inhibition, %: 63.5
- Compound: "CC(C)(C)c1cc(C(c2cc3c(cc2O)OCO3)N2CCOCC2)cc(C(C)(C)C)c1O (configuration not stated)"
  growth inhibition, %: 64.6
- Compound: "C=C1C(=O)OC2/C=C(\\C(=O)O)CC/C=C(\\C)CC(OC(=O)/C=C(\\C)CC)C12 (configuration not stated)"
  growth inhibition, %: 68.2
- Compound: "COc1ccc2c(Cc3ccccc3)c3[n+](cc2c1OC)CCc1cc2c(cc1-3)OCO2"
  growth inhibition, %: 99.2
- Compound: "N#C/C(=C\\c1cccnc1)c1csc2ccccc12"
  growth inhibition, %: 88.8
- Compound: "Cc1c(N=Nc2cccc(F)c2)c(-c2ccccc2)nn1C(N)=S"
  growth inhibition, %: 99.4
- Compound: "CC(NNC(=S)N1CCCC1)c1cccnn1 (configuration not stated)"
  growth inhibition, %: 92.3
- Compound: "ClC1(c2ccccc2)c2ccccc2-c2ccccc21"
  growth inhibition, %: 95.6
- Compound: "CC(C)c1ccc2c(c1)CCC1C(C)(CN)CCCC21C (configuration not stated)"
  growth inhibition, %: 99.6
- Compound: "CCOC(=O)CC1(C)C(=O)CCCC1=O"
  growth inhibition, %: 2
- Compound: "O=c1c(Cl)cc2nc3ccccc3sc-2c1Cl"
  growth inhibition, %: 6.5
- Compound: "CCCCCCC(/C=C/c1ccccc1)=N\\O"
  growth inhibition, %: 98.7
- Compound: "COc1cc[c]([Sn]([c]2ccc(OC)cc2)([c]2ccc(OC)cc2)[c]2ccc(OC)cc2)cc1"
  growth inhibition, %: 85.3

----------
Experiment: NCI Yeast Anticancer Drug Screen. Data for the bub3 strain (AID 167)
Details: S. cerevisiae bub3 mutant strain, at 5.0 µM (retest, dose inferred, filed as 0.5), stronger effect = higher value
The panel holds about 79,000 compounds, 15% with a hit somewhere; the sample as a whole holds those more often.
Think of 10% as a floor: if growth inhibition stands on it or above, it is rule met; beneath it, rule not met.

- Compound: "CC1=C(C)C1[N+](=O)[O-]"
  Assigned class: "rule met"
- Compound: "Cc1cc2c(C(C)C)c(O)c(O)c(C=Nc3ccc(C(=O)O)cc3)c2c(O)c1-c1c(C)cc2c(C(C)C)c(O)c(O)c(C=Nc3ccc(C(=O)O)cc3)c2c1O"
  Assigned class: "rule not met"
- Compound: "CN(C)NC(=S)C(F)(F)F"
  Assigned class: "rule not met"
- Compound: "Cc1cnc2cccc(Cl)c2c1Cl"
  Assigned class: "rule not met"
- Compound: "Cc1ccc2cccc(N)c2c1"
  Assigned class: "rule not met"
- Compound: "CC[n+]1ccc(Nc2ccc(NC(=O)c3ccc(C(=O)Nc4ccc(Nc5cc[n+](CC)c(N)n5)cc4)cc3)cc2)nc1N"
  Assigned class: "rule met"
- Compound: "Cc1ccc[n+](CC(=O)C2CCC3C4CC=C5CC(O)CCC5(C)C4CCC23C)c1 (stereo not drawn)"
  Assigned class: "rule not met"
- Compound: "O=C1OC(=O)c2ccc([N+](=O)[O-])c3cccc1c23"
  Assigned class: "rule not met"
- Compound: "CCOC(=O)Oc1ccc(C)cc1[N+](=O)[O-]"
  Assigned class: "rule not met"
- Compound: "Cn1c(=O)c2c(nc(OCC(C)(C)C)n2C)n(C)c1=O"
  Assigned class: "rule not met"
- Compound: "CCCCCCCCC(=O)NCCCNCCCNC(=O)CCCCCCCC"
  Assigned class: "rule not met"
- Compound: "CO/C(=N\\N=C(/c1ccccc1)C(F)(F)F)c1ccncc1"
  Assigned class: "rule not met"
- Compound: "NNc1c(F)c(F)c(-c2c(F)c(F)c(NN)c(F)c2F)c(F)c1F"
  Assigned class: "rule met"
- Compound: "O=Cc1c(I)cc(I)c(O)c1I"
  Assigned class: "rule met"
- Compound: "O=C1C=CC(=O)N1Cc1ccccc1"
  Assigned class: "rule met"
- Compound: "O=C(O)CN(CC(=O)O)C1CCCCC1N1CC(=O)OC(=O)C1 (stereo not drawn)"
  Assigned class: "rule not met"
- Compound: "COc1c(Br)c(=O)n(C)c(=O)n1C"
  Assigned class: "rule not met"
- Compound: "CC(C)N=C(NC(C)C)SCCCCCCSC(=NC(C)C)NC(C)C"
  Assigned class: "rule not met"
- Compound: "CCCCCCCCCCCCCC/[N+]([O-])=C/c1ccc([N+](=O)[O-])o1"
  Assigned class: "rule not met"
- Compound: "CSc1cc2c(cc1N)Cc1ccccc1-2"
  Assigned class: "rule not met"
- Compound: "COc1cc(C(=O)[O][Sn]([c]2ccccc2)([c]2ccccc2)[c]2ccccc2)cc(OC)c1OC"
  Assigned class: "rule met"
- Compound: "CC(C(=O)c1ccc(Cl)cc1)C1OC(=O)C(Cl)=C1Cl (stereo not drawn)"
  Assigned class: "rule met"
- Compound: "CN(C)CCCSc1c2ccccc2nc2cccc([N+](=O)[O-])c12"
  Assigned class: "rule met"
- Compound: "CN(C)c1ccccc1[CH2][Ga]([Cl])[CH2]c1ccccc1N(C)C"
  Assigned class: "rule not met"
- Compound: "O=C(SC(O)c1ccc(Cl)cc1)c1ccccc1 (stereo not drawn)"
  Assigned class: "rule not met"
- Compound: "OCCCC(Sc1ccccc1)c1ccccc1 (stereo not drawn)"
  Assigned class: "rule not met"
- Compound: "CCCCC(CCCC)=NNC(=S)SC"
  Assigned class: "rule not met"
- Compound: "COC(=O)CCCCCOS(=O)(=O)c1ccc(C)cc1"
  Assigned class: "rule not met"
- Compound: "NNC(=O)N/N=C(\\CC1(O)C(=O)Nc2c(Cl)ccc(Cl)c21)c1ccc(F)cc1 (stereo not drawn)"
  Assigned class: "rule met"
- Compound: "C=CCCCN1C(=O)C2C3c4ccccc4C(C=O)(c4ccccc43)C2C1=O (stereo not drawn)"
  Assigned class: "rule met"
- Compound: "CCCCCCCCCCCCCCCC(=O)N(CCCN(CC)CC)C(C)CCCN(CC)CC (stereo not drawn)"
  Assigned class: "rule met"
- Compound: "CCOC(=O)/C(=C/c1ccccc1Br)P(=O)(OCC)OCC"
  Assigned class: "rule not met"
- Compound: "CC(CC(C#CCN(C)C)N(C)C)CC(C)(C)C (stereo not drawn)"
  Assigned class: "rule not met"
- Compound: "Nc1cc2c(c[n+](CCCBr)c3ccccc23)c2ccccc12"
  Assigned class: "rule met"
- Compound: "Cc1[nH]c2ccccc2c1C(C)CC(O)c1ccccc1 (stereo not drawn)"
  Assigned class: "rule not met"
- Compound: "CCCCC(=O)c1nc(N(CC2CCCCC2)C(=O)NC)sc1N"
  Assigned class: "rule not met"
- Compound: "COc1ccc(CNc2nc3cc(C(F)(F)F)ccc3nc2C)cc1OC"
  Assigned class: "rule not met"
- Compound: "C[N+](C)(C)CCCCCCCCCCC(=O)N/N=C/c1ccc([N+](=O)[O-])o1"
  Assigned class: "rule not met"
- Compound: "Oc1ccc(-c2ccc3ccccc3c2)cc1"
  Assigned class: "rule not met"
- Compound: "Cc1ccnc2[nH]c3ccccc3c(=O)c12"
  Assigned class: "rule met"
- Compound: "CC1CCN(c2cc(-c3cc4ccccc4o3)oc(=O)c2C#N)CC1"
  Assigned class: "rule not met"
- Compound: "CC1(C)OC2COC3(CNO)OC(C)(C)OC3C2O1 (stereo not drawn)"
  Assigned class: "rule not met"
- Compound: "CC(=O)OC/C=C/CCCOC(C)=O"
  Assigned class: "rule met"
- Compound: "COc1ccccc1C(=O)Nc1ccc(Cl)c(C(=O)OC(C)C)c1"
  Assigned class: "rule met"
- Compound: "CCOC1=C(c2ccccc2)Sc2ccc(C)cc2C1c1ccc(C)cc1 (stereo not drawn)"
  Assigned class: "rule not met"
- Compound: "CC(=O)Oc1ccc2cc(-c3ccccc3OC(C)=O)c(=O)oc2c1"
  Assigned class: "rule not met"
- Compound: "O=C1/C(=C/c2cccc(F)c2)CCCc2ccccc21"
  Assigned class: "rule met"
- Compound: "CCC/C(C)=N/NC(=S)SC"
  Assigned class: "rule met"
